# assay_details: Selectivity index, ratio of IC50 for cytotoxicity against golden hamster BSR cells to IC50 for antiprotozoal activity against Trypanosoma cruzi epimastigotes
# Format: toxicity, cell-based
# measurement_setup: read-out: Selectivity Index
Is selectivity ratio at least 8? Then 1.0. If not, 0.0.

Illustrative cases are given below, each with its answer.
[
  {
    "given_smiles": "O=C(CCn1cnc2ccccc21)C12CC3CC(CC(C3)C1)C2",
    "label_value": 0.0
  },
  {
    "given_smiles": "O=C(CCn1ccnc1)c1ccc(Cl)c(F)c1",
    "label_value": 0.0
  },
  {
    "given_smiles": "O=C(CCn1ccnc1)c1ccc(F)c2ccccc12",
    "label_value": 1.0
  },
  {
    "given_smiles": "Cc1ccccc1C(=O)CCn1ccnc1",
    "label_value": 0.0
  },
  {
    "given_smiles": "COc1ccc(C(=O)CCn2ccnc2[N+](=O)[O-])cc1",
    "label_value": 1.0
  }
]

Ask: Evaluate COc1cc(OC)cc(C(=O)CCn2cnc3ccccc32)c1 : selectivity ratio at minimum 8?
Reply: 0.0

Ask: Is selectivity ratio for O=C(Cn1ccnc1[N+](=O)[O-])NCc1ccccc1 at or above 8?
Reply: 1.0

Ask: Has O=C(CCn1ccnc1)c1ccc([N+](=O)[O-])cc1 a recorded selectivity ratio greater than or equal to 8?
Reply: 0.0

Origin of the recorded values: ChEMBL document CHEMBL4840308
